- assayInfo: in vitro
- assaySetup: rat, Cell Toxicity IC50 (uM) [cFib assay], Table 3
property: IC50

1) O=C1C=C2C=C[C@@H]3C[C@@]2(O1)[C@H]1CCCCN31 [Securinine, reference compound]: > 20 µM
2) CC(=O)O[C@]1(C(C)=O)CC[C@H]2[C@@H]3C=C(C)C4=CC(=O)CC[C@]4(C)[C@H]3CC[C@@]21C [Megestrol acetate, reference compound]: > 20 µM
3) C[C@H]1C[C@@H]2[C@H]([C@@H](O)C[C@@]3(C)[C@H]2CC[C@]3(O)C(=O)CO)[C@@]2(C)C=CC(=O)C=C12 [Methylprednisolone, reference compound]: > 20 µM

---

- assayInfo: in vitro
- assaySetup: rat
pIC50: −log10 of the molar value. Where a name gives a salt, the structure may show the parent alone.
The following compounds are listed with their measured pIC50 values.
property: pIC50

1. [H]/N=C(/NCCCCC)N/N=C/c1c[nH]c2ccc(OC)cc12 [Tegaserod maleate, reference compound]: < 4.70
2. Cc1cccc(N(C)C(=S)Oc2ccc3ccccc3c2)c1 [Tolnaftate, reference compound]: < 4.70
3. CNCCC=C1c2ccccc2CCc2ccccc21 [Nortriptyline hydrochloride, reference compound]: 5.00
4. Cc1cccc(C(=O)O)c1O [Hydroxytoluic acid, reference compound]: < 4.70
5. CC(C)C(=O)c1c(C(C)C)nn2ccccc12 [Ibudilast, reference compound]: < 4.70
6. CO[C@H]1C[C@H](O[C@@H]2/C(C)=C/C[C@@H]3C[C@@H](C[C@]4(CC[C@H](C)[C@@H](C5CCCCC5)O4)O3)OC(=O)[C@@H]3C=C(C)/C(=N/O)[C@H]4OC/C(=C\C=C\[C@@H]2C)[C@]43O)O[C@@H](C)[C@@H]1O [Selamectin, reference compound]: < 4.70
7. Clc1ccc2c(c1)C(N1CCNCC1)=Nc1ccccc1O2 [Amoxapine, reference compound]: < 4.70

---

- System: primary rat microglia
- assayInfo: Cell toxicity (dead cells, size <150 μm2) in LPS assay
- assaySetup: primary microglia HTS, LPS stimulation, toxicity = cell size <150 μm2
Where a name gives a salt, the structure may show the parent alone.
property: LPS % cell toxicity

1. Nc1nc(N)nc(-c2cc(Cl)ccc2Cl)n1 [Irsogladine Maleate]: 0%
2. C[C@@H]1CC(=O)NN=C1c1ccc(NN=C(C#N)C#N)cc1: 0%
3. C[C@@H]1O[C@@H]1P(=O)(O)O: 0%
4. CCCCCN(CCCCC)C(=O)C(CCC(=O)O)NC(=O)c1ccc(Cl)c(Cl)c1 (stereo not shown) [Lorglumide Sodium]: 1%
5. CCNC(=O)[C@@H]1CCCN1C(=O)[C@H](CCCNC(=N)N)NC(=O)[C@H](CC(C)C)NC(=O)[C@@H](CC(C)C)NC(=O)[C@H](Cc1ccc(O)cc1)NC(=O)[C@H](CO)NC(=O)[C@H](Cc1c[nH]c2ccccc12)NC(=O)[C@H](Cc1c[nH]cn1)NC(=O)[C@@H]1CCC(=O)N1 [Leuprolide]: −1%
6. COc1ccc(C(=O)NCc2ccc(OCCN(C)C)cc2)cc1OC [Itopride, Itopride Hydrochloride]: 0%
7. CCN(CCO)CCCC(C)Nc1ccnc2cc(Cl)ccc12 (stereo not shown) [Hydroxychloroquine]: 0%

---

- Test system: primary rat microglia
- assaySetup: rat
Structures can show the parent of a compound that is named as a salt.
property: Fibrin % cell toxicity (%)

1. CN(C)C(=O)C(CCN1CCC(O)(c2ccc(Cl)cc2)CC1)(c1ccccc1)c1ccccc1 [Loperamide]: 1
2. Oc1ccc2c3c1O[C@H]1[C@@H](O)CC[C@@]4(O)[C@@H](C2)N(CC2CCC2)CC[C@]314 [Nalbuphine Hydrochloride]: 1
3. CCCCNC(=O)NS(=O)(=O)c1ccc(C)cc1 [Tolbutamide]: 1
4. CO[C@H]1/C=C/O[C@@]2(C)Oc3c(C)c(O)c4c(O)c(c(/C=N/N5CCN(C)CC5)c(O)c4c3C2=O)NC(=O)/C(C)=C\C=C\[C@H](C)[C@H](O)[C@@H](C)[C@@H](O)[C@@H](C)[C@H](OC(C)=O)[C@@H]1C [Rifampin]: 1
5. OC(CNCC(O)C1CCc2cc(F)ccc2O1)C1CCc2cc(F)ccc2O1 (stereo not shown): 1
6. Cn1cc[nH]c1=S: 0
7. CC(C[N+](C)(C)C)OC(N)=O (stereo not shown): 1
8. Cc1ncc([N+](=O)[O-])n1C: 1
9. CC(=O)c1ccc2c(c1)N(CCCN1CCC(CCO)CC1)c1ccccc1S2: 0
10. NCCc1ccc(O)c(O)c1: 1
11. C=C1CC[C@H](O)C/C1=C/C=C1\CCC[C@]2(C)[C@@H]([C@H](C)CCCC(C)C)CC[C@@H]12: 1
12. CC(=O)Nc1ccc(O)cc1: 0
13. COc1ccc(CC(C)NCC(O)c2ccc(O)c(NC=O)c2)cc1 (stereo not shown): 1
14. CC(=O)[C@H]1CC[C@H]2[C@@H]3CCC4=CC(=O)CC[C@]4(C)[C@H]3CC[C@]12C: 1
15. Oc1ccc2c3c1O[C@H]1[C@@H](O)CC[C@@]4(O)[C@@H](C2)N(CC2CCC2)CC[C@]314 [Nalbuphine]: 1
16. CC(COc1ccccc1)N(CCCl)Cc1ccccc1 (stereo not shown): 1
17. N=C(N)c1ccc(OCCCCCOc2ccc(C(=N)N)cc2)cc1: 1
18. c1ccc([C@H]2CN3CCSC3=N2)cc1: 0
19. CCOC(=O)C1=C[C@]2(CC)CCCN3CCc4c(n1c1ccccc41)[C@@H]32: 0
20. CC(C)c1nc(CN(C)C(=O)N[C@H](C(=O)N[C@@H](Cc2ccccc2)C[C@H](O)[C@H](Cc2ccccc2)NC(=O)OCc2cncs2)C(C)C)cs1: 0
21. Cc1c(O)c(=O)ccn1C: 1
22. Clc1ccc(C(Cn2ccnc2)OCc2ccsc2Cl)c(Cl)c1 (stereo not shown): 1
23. COc1ccc([C@@H]2Sc3ccccc3N(CCN(C)C)C(=O)[C@@H]2OC(C)=O)cc1 [Diltiazem Hydrochloride]: 0
24. C[C@@H]1C[C@H]2[C@@H]3CCC4=CC(=O)C=C[C@]4(C)[C@@]3(F)[C@@H](O)C[C@]2(C)[C@@]1(O)C(=O)COP(=O)(O)O [Dexamethasone sodium phosphate, reference compound]: 2
25. NCC(=O)CCC(=O)O: 1
26. CC(C)(C)NC(=O)[C@@H]1C[C@@H]2CCCC[C@@H]2CN1C[C@@H](O)[C@H](Cc1ccccc1)NC(=O)[C@H](CC(N)=O)NC(=O)c1ccc2ccccc2n1 [Saquinavir, reference compound]: 1
27. Cc1cccc(C(=O)O)c1O [Hydroxytoluic acid, reference compound]: 1
28. Cc1cccc(C)c1OCC(C)N (stereo not shown): 1
29. Cc1c(O)cccc1C(=O)N[C@@H](CSc1ccccc1)[C@H](O)CN1C[C@H]2CCCC[C@H]2C[C@H]1C(=O)NC(C)(C)C: 1
30. Cc1ccc(C(C)C)c(O)c1: 1
31. O=c1cccc2n1C[C@@H]1CNC[C@H]2C1: 1
32. CC1=CC(=O)NS(=O)(=O)O1: 0
33. c1ccc(C2CN3CCSC3=N2)cc1 (stereo not shown) [Tetramizole Hydrochloride]: 8
34. CCN(CC)CCOCCOC(=O)C1(c2ccccc2)CCCC1 [Carbetapentane Citrate]: 1

---

The following compounds are listed with their measured inhibition at 10 µM values.
- System: fibrin-induced microglia activation
- assayInfo: Image-based assay of fibrin-induced microglia activation (HTS and dose response)
- Type: cell-based, rat
- assaySetup: Rattus norvegicus, Microglia, primary microglia HTS, fibrin stimulation, activation = cell size >800 μm2; read-out: Fibrin % inhibition
property: inhibition at 10 µM

1) Cl[C@H]1[C@H](Cl)[C@@H](Cl)[C@@H](Cl)[C@H](Cl)[C@H]1Cl [Lindane]: 42%
2) CCOC(=O)Nc1nc2ccccc2[nH]1 [Lobendazole]: -4%
3) C=COCC(F)(F)F [Fluroxene]: -19%
4) NP(N)(=O)NC(=O)c1ccc(F)cc1 [Flurofamide]: 3%
5) CCC(NC(C)C)C(O)c1ccc(O)c(O)c1 (centres unmarked) [Isoetarine]: 21%

---

- Test system: fibrin-induced microglia activation
- assayInfo: Image-based assay of fibrin-induced microglia activation (HTS and dose response)
- Type: cell-based, rat
- assaySetup: Table 1; dose response 0.001-20 μM, triplicates, primary rat microglia, 48 h; read-out: Fibrin IC50
pIC50: −log10 of the molar value.
The following compounds are listed with their measured pIC50 values.
property: pIC50

1) CCCOc1ccc2[nH]c(NC(=O)OC)nc2c1 [Oxybendazole, reference compound]: 5.15
2) O=C1[O][Pt]2([NH][C@@H]3CCCC[C@H]3[NH]2)[O]C1=O [Oxaliplatin, reference compound]: 5.30

---

The following molecules are listed with their measured IC50 values.
- System: LPS-induced microglia activation
- assayInfo: Image-based assay of LPS-induced microglia activation (HTS and dose response)
- Type: cell-based, rat
- assaySetup: Rattus norvegicus, Microglia, LPS-induced microglia activation, dose response; read-out: LPS IC50 (uM) (Suppl. Table 7)
Where a name gives a salt, the structure may show the parent alone.
property: IC50 (µM)

1. COC(=O)Nc1nc2ccc(Sc3ccccc3)cc2[nH]1 [Fenbendazole, reference compound]: 4
2. CCCC(=O)O[C@]1(C(=O)CO)CC[C@H]2[C@@H]3CCC4=CC(=O)CC[C@]4(C)[C@H]3[C@@H](O)C[C@@]21C [Hydrocortisone butyrate, reference compound]: 2
3. CN(C)[C@@H]1C(O)=C(C(N)=O)C(=O)[C@@]2(O)C(O)=C3C(=O)c4c(O)ccc(Cl)c4[C@@H](O)[C@H]3C[C@@H]12 [Demeclocycline hydrochloride, reference compound]: 15
